Origin of measurements: PubChem BioAssay AID1445

# subject-of-test: Aminopeptidase N (Plasmodium falciparum (isolate 3D7)) (UniProt O96935)
# Sequence (O96935 whole entry, looked up): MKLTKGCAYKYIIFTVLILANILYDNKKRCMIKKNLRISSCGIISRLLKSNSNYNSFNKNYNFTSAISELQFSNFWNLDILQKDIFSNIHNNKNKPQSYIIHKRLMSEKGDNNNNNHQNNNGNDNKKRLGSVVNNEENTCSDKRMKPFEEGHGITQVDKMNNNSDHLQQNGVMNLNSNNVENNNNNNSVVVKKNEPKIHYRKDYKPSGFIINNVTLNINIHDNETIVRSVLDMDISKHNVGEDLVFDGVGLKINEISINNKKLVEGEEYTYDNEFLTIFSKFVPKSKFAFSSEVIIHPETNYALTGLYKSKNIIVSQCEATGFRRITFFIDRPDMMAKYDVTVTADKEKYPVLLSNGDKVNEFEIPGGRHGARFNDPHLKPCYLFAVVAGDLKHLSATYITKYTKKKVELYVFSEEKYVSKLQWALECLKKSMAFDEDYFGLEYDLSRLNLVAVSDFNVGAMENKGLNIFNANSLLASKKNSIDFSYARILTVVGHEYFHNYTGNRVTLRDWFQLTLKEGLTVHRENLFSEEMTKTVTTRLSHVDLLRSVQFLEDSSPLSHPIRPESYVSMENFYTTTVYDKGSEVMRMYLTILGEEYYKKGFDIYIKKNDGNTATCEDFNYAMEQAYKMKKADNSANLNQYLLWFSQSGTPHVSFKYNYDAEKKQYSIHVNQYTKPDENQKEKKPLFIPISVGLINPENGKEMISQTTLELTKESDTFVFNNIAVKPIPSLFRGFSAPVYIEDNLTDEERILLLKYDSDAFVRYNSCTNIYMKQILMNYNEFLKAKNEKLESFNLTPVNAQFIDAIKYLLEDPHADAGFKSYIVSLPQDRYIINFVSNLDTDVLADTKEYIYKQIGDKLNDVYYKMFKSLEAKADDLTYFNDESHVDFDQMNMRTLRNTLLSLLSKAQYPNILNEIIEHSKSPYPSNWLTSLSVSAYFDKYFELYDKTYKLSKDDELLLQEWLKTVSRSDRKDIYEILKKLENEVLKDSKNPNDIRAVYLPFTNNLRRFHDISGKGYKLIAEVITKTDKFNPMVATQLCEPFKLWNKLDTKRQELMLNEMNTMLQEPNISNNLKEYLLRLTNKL
# test-method-notes: malaria alanyl aminopeptidase activity blockers – biochemical, fluorogenic H-Leu-NHMec substrate, 1536-well (AID 1445);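 further: plate controls were DMSO full reaction for no effect and no enzyme background for full effect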
# assay-setup: recombinant M1AAP, H-Leu-NHMec fluorogenic kinetic assay; at 30 µM, active compounds read high unless noted
Among all 220,000 compounds or so, about 910 (0.41%) were called active. For the sample, actives were picked, then their nearest neighbours and some compounds at random. Potency and affinity values are given separately.
Recorded inhibition values for a group of compounds are listed next.
State just the number; it will be interpreted in %.

INSERT INTO results (compound, test_readout, recorded_measurement) VALUES
  ('CCNC(=S)N(CCc1ccc(S(N)(=O)=O)cc1)C1CC(=O)N(c2ccccc2)C1=O (stereo not drawn)', 'inhibition', 2.82),
  ('O=C1OC(/C(=C\Nc2ccc(F)cc2F)[N+](=O)[O-])c2ccccc21 (stereo not drawn)', 'inhibition', 8.86),
  ('COc1ccc([N+](=O)[O-])cc1NC(=O)c1cc(C)c(C)o1', 'inhibition', 8.9),
  ('Cc1cccc(Nc2nc(N)nc(CN3CCN(C)CC3)n2)c1', 'inhibition', 9.59),
  ('Cc1cccc(-c2c3c(=O)n(C)c(=O)n(C)c3cn2C(C)(C)C)c1', 'inhibition', 7.14),
  ('COC(=O)/C(N=Nc1cccc(C(F)(F)F)c1)=C(\C)O', 'inhibition', 8.29);

### Prompt Given CC(C)NC(=O)CSc1nnc(-c2ccc(F)cc2)c2ccccc12 , state its recorded inhibition.
### Response 0.8

### Prompt Given O=C1N[C@@H](Cc2ccccc2)C(=O)N1CCN1CCOCC1 , state its recorded inhibition.
### Response -7.62

### Prompt Given Cc1nc(-c2cccc(S(=O)(=O)N3CC(C)OC(C)C3)c2)cs1 (stereo not drawn) , state its recorded inhibition.
### Response -2.63

### Prompt Given COc1ccc(F)cc1S(=O)(=O)Nc1ccc(C)cc1 , state its recorded inhibition.
### Response -1.13

---

Recorded inhibition values for a group of compounds are listed next.
# subject-of-test: Aminopeptidase N (Plasmodium falciparum (isolate 3D7))
# test-method-notes: malaria alanyl aminopeptidase activity blockers – biochemical, fluorogenic H-Leu-NHMec substrate, 1536-well (AID 1445);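 further: plate controls were DMSO full reaction for no effect and no enzyme background for full effect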
# assay-setup: recombinant M1AAP, H-Leu-NHMec fluorogenic kinetic assay; at 30 µM, active compounds read high unless noted
About 910 (0.41%) of roughly 220,000 compounds were called active. The entries come from a sample that favours actives as a whole. Results with a measured potency or affinity are listed apart.
State just the number; it will be interpreted in %.

Example entries and their recorded answers appear below.
INSERT INTO measurements (compound, recorded_measurement) VALUES
  ('COC(=O)C1=C(N)Oc2cc(C)n(CCCn3ccnc3)c(=O)c2C1c1ccc(Cl)cc1 (stereo not given)', 27.9),
  ('CC1(C)CC(=O)C(C=NCCN2CCN(C(=O)c3ccc(Br)cc3)CC2)=C(O)C1', 2.26),
  ('COc1ccc(CNC(=O)c2ccccc2SC)cc1', -2.23),
  ('CCOC(=O)C1(C(F)(F)F)N=C(C(F)(F)F)Nc2cc(C)c(C)cc21 (stereo not given)', 1.48),
  ('Cc1[nH]c2ccccc2c1CCNC(=O)CCC(=O)c1ccccc1', 0.77);

### Prompt Given CCOC(=O)c1c(-c2ccccc2)csc1N1C(=O)Nc2ccccc2N1O , state its recorded inhibition.
### Response 17

### Prompt Given COC(=O)N/N=C\c1ccc(OC(=O)c2ccco2)cc1 , state its recorded inhibition.
### Response 5.66

### Prompt Given COc1cc(C2C(C#N)=C(N)Oc3n[nH]c(-c4cccnc4)c32)cc(Br)c1O (stereo not given) , state its recorded inhibition.
### Response 17.3

### Prompt Given Nc1nonc1-c1nc2ccccc2n1CC(=O)N/N=C\c1ccc(-c2ccc(Cl)cc2)o1 , state its recorded inhibition.
### Response -0.3

### Prompt Given C=CCn1c(CCNC(=O)c2ccccc2F)nnc1SCC(=O)Nc1nc(C)cs1 , state its recorded inhibition.
### Response -1.07

### Prompt Given C=CCn1c(=O)c2ccccc2n2c(SCC(=O)Nc3sc(C)c(CC)c3C(=O)OCC)nnc12 , state its recorded inhibition.
### Response 1.54

### Prompt Given NC(=O)Cn1c(-c2nonc2N)nc2ccccc21 , state its recorded inhibition.
### Response 2.36

### Prompt Given COC(=O)C1=C(N)Oc2cc(C)n(CC3CCCO3)c(=O)c2C1c1ccc(Cl)cc1 (stereo not given) , state its recorded inhibition.
### Response 10.9

### Prompt Given C=CCn1c(CNC(=O)c2ccccc2F)nnc1SCc1nc2ccccc2c(=O)[nH]1 , state its recorded inhibition.
### Response 7.18

### Prompt Given c1ccc(CSCc2cn3ccccc3n2)cc1 , state its recorded inhibition.
### Response -5.43

### Prompt Given Cc1c(C)c2ccc(Oc3ccc([N+](=O)[O-])cc3C(F)(F)F)c(C)c2oc1=O , state its recorded inhibition.
### Response 6.61
